assay: in vitro; settings: human, MDCK
ENDPOINT_LABEL: Papp (×10⁻⁶ cm/s)
Answers are plain numbers, in ×10⁻⁶ cm/s.

Could you please provide reported Papp for O=C(Nc1ccc(OC(F)(F)Cl)cc1)c1cnc(N2CC[C@@H](O)C2)c(-c2ccn[nH]2)c1 [asciminib] ? Thanks!
373

----------
target: UGT1A4 (Homo sapiens); assay: Inhibition of recombinant UGT1A4 by imatinib
Sequence (P22310 29-534): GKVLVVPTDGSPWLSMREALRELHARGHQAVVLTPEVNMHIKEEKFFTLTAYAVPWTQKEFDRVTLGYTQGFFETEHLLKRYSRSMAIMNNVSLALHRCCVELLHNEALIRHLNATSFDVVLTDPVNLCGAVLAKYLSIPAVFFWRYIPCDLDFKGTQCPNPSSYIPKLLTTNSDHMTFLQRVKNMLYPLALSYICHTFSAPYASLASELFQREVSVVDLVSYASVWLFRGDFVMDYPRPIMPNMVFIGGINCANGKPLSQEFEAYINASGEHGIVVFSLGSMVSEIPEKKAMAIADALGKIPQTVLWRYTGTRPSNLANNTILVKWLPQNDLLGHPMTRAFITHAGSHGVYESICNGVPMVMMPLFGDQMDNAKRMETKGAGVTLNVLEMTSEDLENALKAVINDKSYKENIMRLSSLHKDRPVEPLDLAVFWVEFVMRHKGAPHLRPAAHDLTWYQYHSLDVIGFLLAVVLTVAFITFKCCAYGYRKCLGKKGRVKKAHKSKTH
ENDPOINT_LABEL: IC50 (µM)
One number for each entry, in µM.

Could you please provide reported IC50 for Cc1ccc(NC(=O)c2ccc(CN3CCN(C)CC3)cc2)cc1Nc1nccc(-c2cccnc2)n1 ? Thanks!
15
